- Assayed system: CETP (Homo sapiens, UniProt P11597)
- Construct: from tissue; host or cells: human plasma from normal volunteers
- Sequence (P11597 18-493): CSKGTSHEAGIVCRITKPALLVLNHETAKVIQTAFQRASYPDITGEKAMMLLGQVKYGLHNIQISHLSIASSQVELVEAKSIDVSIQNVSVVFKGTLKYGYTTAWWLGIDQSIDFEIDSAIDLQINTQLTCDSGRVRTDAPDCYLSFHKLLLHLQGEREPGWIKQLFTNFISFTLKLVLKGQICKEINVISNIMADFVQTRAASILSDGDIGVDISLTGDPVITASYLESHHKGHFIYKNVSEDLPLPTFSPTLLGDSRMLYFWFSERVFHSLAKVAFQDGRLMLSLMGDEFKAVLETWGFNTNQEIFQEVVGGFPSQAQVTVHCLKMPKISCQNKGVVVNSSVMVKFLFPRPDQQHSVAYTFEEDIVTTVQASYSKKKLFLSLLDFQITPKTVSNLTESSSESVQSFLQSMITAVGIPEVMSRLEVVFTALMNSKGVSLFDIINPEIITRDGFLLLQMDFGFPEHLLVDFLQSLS
- Test description: CETP in vitro assay (Amersham kit TRKQ7005; modified protocol in human plasma, [3H]CE-HDL transfer)
- Type: biochemical
- Condition parameters: 1 μM compound; read-out: % Inhibition @ 1 μM
Value type: inhibition at 1 µM (%)

* C[C@H](O)CN1c2cccc(-c3cccc(OC(F)(F)F)c3)c2CC[C@@H]1c1cccc(OC(F)(F)C(F)F)c1 | 0
* OC(CN1c2cccc(-c3cccc(OC(F)(F)F)c3)c2CCC1c1cccc(OC(F)(F)C(F)F)c1)C(F)(F)F (single isomer, unassigned) | 100
* C[C@@H](O)CN1c2cccc(-c3cccc(F)c3)c2CC[C@H]1c1cccc(OC(F)(F)F)c1 | 0
* COC[C@@H](O)CN1c2cccc(-c3cccc(OC(F)(F)F)c3)c2CC[C@@H]1c1cccc(OC(F)(F)F)c1 | 13
* OC(CN1c2cccc(Oc3cccc(Cl)c3Cl)c2CCC1c1cccc(OC(F)(F)C(F)F)c1)C(F)(F)F (stereo not shown) | 67
* C[C@@H](O)CN1c2cccc(-c3cccc(OC(F)(F)F)c3)c2CC[C@@H]1c1cccc(OC(F)(F)C(F)F)c1 | 61
* CCC1CCc2c(-c3cccc(OC(F)(F)F)c3)cccc2N1Cc1cccc(OC(F)(F)F)c1 (stereo not shown) | 17

====

The entries below come with measured IC50 values attached.
- Assayed system: CETP (Homo sapiens, UniProt P11597)
- Sequence (P11597 18-493): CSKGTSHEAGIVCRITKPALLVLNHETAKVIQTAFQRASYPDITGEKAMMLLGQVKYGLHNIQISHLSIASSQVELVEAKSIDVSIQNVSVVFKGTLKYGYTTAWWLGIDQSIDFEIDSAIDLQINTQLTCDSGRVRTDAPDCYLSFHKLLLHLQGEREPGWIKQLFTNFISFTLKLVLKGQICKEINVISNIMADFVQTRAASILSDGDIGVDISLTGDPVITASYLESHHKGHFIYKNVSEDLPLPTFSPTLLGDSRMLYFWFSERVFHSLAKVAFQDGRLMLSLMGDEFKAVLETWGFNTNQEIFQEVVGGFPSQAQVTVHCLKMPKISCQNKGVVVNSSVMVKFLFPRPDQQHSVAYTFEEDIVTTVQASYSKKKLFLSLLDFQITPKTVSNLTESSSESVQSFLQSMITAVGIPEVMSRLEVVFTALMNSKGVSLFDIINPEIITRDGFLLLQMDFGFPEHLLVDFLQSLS
- Test description: CETP in vitro assay (Amersham kit TRKQ7005; modified protocol in human plasma, [3H]CE-HDL transfer)
- Condition parameters: from plots of % control versus compound concentration
Value type: IC50 (nM)

* OC(CN1c2cccc(-c3ccsc3)c2CCC1c1cccc(OC(F)(F)C(F)F)c1)C(F)(F)F (centres unmarked) [Compound 64] | 300
* OC(CF)CN1c2cccc(-c3cccc(OC(F)(F)F)c3)c2CCC1c1cccc(OC(F)(F)F)c1 (centres unmarked) [Compound 49] | 331
* OC(CN1c2cccc(-c3ccc(C(F)(F)F)cc3)c2CCC1c1cccc(OC(F)(F)C(F)F)c1)C(F)(F)F (centres unmarked) [Compound 3] | 500
* OC(CN1c2cccc(-c3cccc(OC(F)(F)F)c3)c2CCC1c1cccc(C(F)(F)F)c1)C(F)(F)F (centres unmarked) [Compound 18] | 2900
* CCc1cc(Oc2cccc3c2CCC(c2cccc(OC(F)(F)C(F)F)c2)N3CC(O)C(F)(F)F)ccc1Cl (centres unmarked) [Compound 84] | 600
* OC(CN1c2cccc(-c3cccc(C(F)(F)F)c3)c2CCC1c1cccc(OC(F)(F)C(F)F)c1)C(F)(F)F (centres unmarked) [Compound 13] | 96
* C[C@@H](O)CN1c2cccc(-c3cccc(Cl)c3)c2CC[C@@H]1c1cccc(OC(F)(F)F)c1 [Compound 40] | 150
* CCc1cc(Oc2cccc3c2CCC(c2cccc(OC(F)(F)C(F)F)c2)N3CC(O)C(F)(F)F)ccc1Cl (centres unmarked) [Compound 85] | 400
